Target: MBP-PDI-b′xa′ L355R (Homo sapiens, UniProt P07237, L355R)
Construct: MBP-PDI-b′xa′(235–479); His-tag
Experiment: Isothermal titration calorimetry (ITC)
Conditions: 25 °C
Method: Microcalorimetry titration of rutin to PDI recombinant and mutant proteins used a MicroCal ITC200 microcalorimeter (GE Healthcare). PDI recombinant proteins, which concentration ranges from 25 μM to 50 μM, were added into the cell (about 300 μL). Rutin, with concentration ranging from 500 μM to 1 mM, was injected from syringe to titrate the protein in cell (almost 40 μL). […] Data was analyzed with MicroCal Origin (MicroCal). […]
measured_parameter: pKd
Scale: negative log10 of molar concentration, which is what pKd denotes.

**Q:** Which pKd value is on record for C[C@@H]1O[C@@H](OC[C@H]2O[C@@H](Oc3c(-c4ccc(O)c(O)c4)oc4cc(O)cc(O)c4c3=O)[C@H](O)[C@@H](O)[C@@H]2O)[C@H](O)[C@H](O)[C@H]1O ?
**A:** 5.46

---

Target: human MBP-PDI-b′x (Homo sapiens)
Sequence (P07237 235-369): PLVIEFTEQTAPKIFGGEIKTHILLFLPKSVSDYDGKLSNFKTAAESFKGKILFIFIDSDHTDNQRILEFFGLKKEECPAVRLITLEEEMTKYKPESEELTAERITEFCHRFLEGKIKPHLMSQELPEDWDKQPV
measured_parameter: pIC50
Scale: negative log10 of molar concentration, which is what pIC50 denotes.

**Q:** Which pIC50 value is on record for C[C@@H]1O[C@@H](OC[C@H]2O[C@@H](Oc3c(-c4ccc(O)c(O)c4)oc4cc(O)cc(O)c4c3=O)[C@H](O)[C@@H](O)[C@@H]2O)[C@H](O)[C@H](O)[C@H]1O [rutin] ?
**A:** 4.73
